Exercise: for every item that follows, state its recorded inhibition.
- testedSystem: Neuropeptide Y receptor type 1 (Homo sapiens) (UniProt P25929)
- Sequence (P25929 whole entry, looked up): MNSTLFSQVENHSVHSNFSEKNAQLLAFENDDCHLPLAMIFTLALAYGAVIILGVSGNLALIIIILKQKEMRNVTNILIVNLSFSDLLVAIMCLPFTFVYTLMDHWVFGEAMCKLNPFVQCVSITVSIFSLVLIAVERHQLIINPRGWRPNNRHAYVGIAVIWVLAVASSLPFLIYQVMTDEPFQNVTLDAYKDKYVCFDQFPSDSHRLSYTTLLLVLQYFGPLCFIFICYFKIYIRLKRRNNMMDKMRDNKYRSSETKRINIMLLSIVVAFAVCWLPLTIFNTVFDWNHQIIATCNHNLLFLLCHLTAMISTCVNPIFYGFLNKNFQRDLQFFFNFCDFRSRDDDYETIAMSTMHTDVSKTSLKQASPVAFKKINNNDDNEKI
- assayInfo: blockers of human neuropeptide Y Y1 receptor – cell-based, primary screen (AID 1040);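 also: 0% = DMSO wells given NPY plus isoproterenol and 100% = isoproterenol alone without NPY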
- experimentalParameters: HEK293-CNG Y1 cells, membrane potential fluorescence; at 3.6 µM; stronger effect = higher value; NPY at EC95, then isoproterenol
In all, about 200,000 compounds went through this assay and about 2,000 (1%) were called active. This excerpt belongs to a sample that is enriched for actives.
Answers are plain numbers, in %.

INSERT INTO assay_data (molecule, endpointunit, obsvalue) VALUES
  ('Cc1ccc2c(c1)C1CN(C)CCC1N2C(=S)Nc1ccc(Cl)cc1Cl (stereo not given)', '%', 0.03),
  ('Cc1ccnc(NC(=O)CCC(=O)N(CC(=O)NCc2ccccc2)Cc2ccco2)c1', '%', 2.07);

I'm hoping you can list inhibition for every molecule here, please.
1. CCOc1ccc(CCNC(=O)C2=C(C)C(=O)OC23CCC(C)CC3)cc1OCC (stereo not given)
2. O=S(=O)(NCc1ccccc1)c1ccc(S(=O)(=O)N2CCCC2)cc1
3. Fc1ccc(-c2nnc(CSc3nnc(-c4ccc5c(c4)OCO5)o3)o2)cc1
4. CC(=O)c1ccc(N2CCN(S(=O)(=O)c3c(C)[nH]c(=O)[nH]c3=O)CC2)cc1
5. Cc1ncc([N+](=O)[O-])n1CCOC(=O)c1ccc(Br)cc1
6. Cc1c(/C=N\NC(=O)c2cc3ccccc3o2)c2ccccc2n1C
7. COC(=O)C1C(=O)NCC1c1ccc(C)cc1 (stereo not given)
8. COC(=O)C1=C(Nc2ccc(C)cc2)C=C(C)C(C(=O)OC)C1c1ccc(F)cc1 (stereo not given)

Result:
1. 8.46
2. 1
3. 29.9
4. -3.11
5. -0.91
6. 8.68
7. -2.75
8. 32.6

---

- testedSystem: Neuropeptide Y receptor type 1 (Homo sapiens) (UniProt P25929)
- assayInfo: blockers of human neuropeptide Y Y1 receptor – cell-based, primary screen (AID 1040);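 also: 0% = DMSO wells given NPY plus isoproterenol and 100% = isoproterenol alone without NPY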
- experimentalParameters: HEK293-CNG Y1 cells, membrane potential fluorescence; at 3.6 µM; stronger effect = higher value; NPY at EC95, then isoproterenol
About 2,000 (1%) of roughly 200,000 compounds were called active. For the sample, actives were picked, then their nearest neighbours and some compounds at random.
parameterMeasured: inhibition (%)
Give bare numbers, in %.

INSERT INTO assay_data (smilesstructure, endpointunit, obsvalue) VALUES
  ('CCOC(=O)c1cnn(Cc2ccccc2Cl)c1N', '%', -2.37),
  ('COC(=O)c1ccc(COC(=O)c2c(C)nn(Cc3ccccc3Cl)c2Cl)o1', '%', 22.2),
  ('COC(=O)c1ccc(CSc2ccccc2C)o1', '%', -3.04);

Request: State the recorded inhibition for this entry: CC(=O)c1ccc(NC(=O)c2ccc3c(Cl)c4c(nc3c2)CCCC4)cc1
Result: -4.67

---

- testedSystem: Neuropeptide Y receptor type 1 (Homo sapiens)
- assayInfo: blockers of human neuropeptide Y Y1 receptor – cell-based, primary screen (AID 1040);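 also: 0% = DMSO wells given NPY plus isoproterenol and 100% = isoproterenol alone without NPY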
- experimentalParameters: HEK293-CNG Y1 cells, membrane potential fluorescence; at 3.6 µM; stronger effect = higher value; NPY at EC95, then isoproterenol
Screen size: about 200,000 compounds; about 2,000 (1%) were called active. Shown is part of a subset that was picked to be rich in actives.
parameterMeasured: inhibition (%)
Answers are plain numbers, in %.

INSERT INTO measurements (compound, parametermeasured, endpointunit, obsvalue) VALUES
  ('Cc1ccc(S(=O)(=O)NC(C(=O)N2CCOCCOCCOCCOCC2)c2ccccc2)cc1 (stereo not drawn)', 'inhibition', '%', 5.72),
  ('CC1CCN(S(=O)(=O)c2ccc3ncn(CC(=O)N(C)C4CCCCC4)c(=O)c3c2)CC1', 'inhibition', '%', 4.79),
  ('COCCCNC(=S)N1CCCC(c2nc3cc(C)c(C)cc3[nH]2)C1 (stereo not drawn)', 'inhibition', '%', -0.11),
  ('O=C(NNC1=C(C(=O)C(F)(F)F)CCC1)c1ccncc1', 'inhibition', '%', 0.61),
  ('C=CCn1c(CNC(=O)c2ccco2)nnc1SCC(=O)c1ccc(OC)cc1', 'inhibition', '%', 0.4);

I'm hoping you can list inhibition for every compound here, please.
1. COc1ccccc1NC(=O)CCCc1c[nH]c2ccccc12
2. c1ccc(-c2[nH]ncc2-c2nc3ccccc3[nH]2)cc1
3. Cc1ccc(OCC(=O)N/N=C/c2ccncc2)cc1
4. CCN(CCCNC(=O)CSc1cc(=O)n(C)c2cc(Cl)ccc12)Cc1ccccc1
5. COc1ccc(C(CCNCc2ccccc2F)c2ccc(F)cc2)cc1 (stereo not drawn)
6. COc1ccc(C(c2nnnn2C2CCCCC2)N2CCN(c3ccccc3F)CC2)cc1 (stereo not drawn)

Result:
1: 11.1; 2: -3.83; 3: 0.98; 4: 1.58; 5: 9.35; 6: 23.3

I'm hoping you can list inhibition for every compound here, please.
1. CC(=O)Oc1ccccc1C1=NN(C(C)=O)C(c2ccccc2)C1 (stereo not drawn)
2. CC(=O)OC(C)C[N+](C)(C)C (stereo not drawn)

Result:
1. 1.31
2. 25.2

I'm hoping you can list inhibition for every compound here, please.
1. CCn1c(COc2ccccc2)nnc1SCC(=O)NCc1ccco1
2. CSc1ccc(S(=O)(=O)NC2CCCCC2)cc1
3. Cc1ccc(OCC(=O)N/N=C\c2ccco2)c(C)c1
4. COc1ccc(/C=N/NC(=O)Cn2cc(C(F)(F)F)ccc2=O)cc1
5. O=C(NCCCN1CCOCC1)c1ccccc1NS(=O)(=O)c1ccc(Br)cc1
6. COc1ccc(C(=O)CSc2nnc(COc3ccccc3)n2Cc2ccco2)cc1

Result:
1: -4.68; 2: -0.27; 3: 7.4; 4: 0.12; 5: 11.9; 6: 24.4

I'm hoping you can list inhibition for every compound here, please.
1. COc1ccc(-n2nc3c(c2NC(=O)c2ccc(N4C(=O)CCC4=O)cc2)CSC3)cc1
2. CC1(C)C2CC=C(/C=N/NC(=O)C3CC3)C1C2 (stereo not drawn)
3. C/C(=N\Nc1ncc(Cl)cc1Cl)c1cccs1
4. O=C(NCCCN1CCOCC1)c1cnn2c(-c3ccccc3)cc(-c3ccccc3)nc12

Result:
[2.78, 4.14, 4.59, 30.1]
